- experiment: Plasma stability in vitro, human plasma
- measurement-parameters: human plasma, 2 μM, 37° C., 30 min; in % (unit assumed)
measured-quantity: Content of Tested Substance (n = 2)

compound=COc1cc(OC)c2c(=O)[nH]c(-c3cc(C)c(OCCO[N+](=O)[O-])c(C)c3)nc2c1 test_value=96.4
compound=COc1cc(OC)c2c(=O)[nH]c(-c3cc(C)c(OCCOC(=O)c4cccc(CO[N+](=O)[O-])c4)c(C)c3)nc2c1 test_value=98.4
compound="COc1cc(OC)c2c(=O)[nH]c(-c3cc(C)c(OCCOC(=O)CCC(CO[N+](=O)[O-])O[N+](=O)[O-])c(C)c3)nc2c1 (centres unmarked)" test_value=95.5
compound=COc1cc(OC)c2c(=O)[nH]c(-c3cc(C)c(OCCOC(=O)ONS(=O)(=O)c4ccc(C)s4)c(C)c3)nc2c1 test_value=89.6
compound=COc1cc(OC)c2c(=O)[nH]c(-c3cc(C)c(OCCOC(=O)ONS(=O)(=O)c4ccc(C)o4)c(C)c3)nc2c1 test_value=88.7
